Record form. Attribute: kon. Fill in for each entry.
Molecular target: T1, IL13RA2 Protein, Rhesus macaque, His tag (Rhesus macaque, UniProt A0A5F8A9D9 27-343)
T1 construct: the summary sentence says cynomolgous; also called Rhesus macaque IL13R alpha 2 protein with His tag; cynomolgous IL 13RA2 (as the text calls it); not shown: His tag
T1 sequence: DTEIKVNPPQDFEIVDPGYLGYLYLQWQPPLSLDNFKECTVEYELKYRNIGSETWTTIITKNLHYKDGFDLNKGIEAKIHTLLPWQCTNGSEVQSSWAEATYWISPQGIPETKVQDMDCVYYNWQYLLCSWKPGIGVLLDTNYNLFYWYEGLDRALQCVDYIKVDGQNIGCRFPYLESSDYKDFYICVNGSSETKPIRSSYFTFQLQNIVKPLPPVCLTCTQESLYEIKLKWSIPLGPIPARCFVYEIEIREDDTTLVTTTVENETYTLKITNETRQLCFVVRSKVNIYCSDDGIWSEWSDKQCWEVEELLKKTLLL
Assay: BLI; biotinylated VHH captured on streptavidin biosensor, antigen 1 uM in solution
// units = M⁻¹ s⁻¹; emit number, no label

Ask: Given the entry VH57f5 (VHH, biotinylated (site not stated), Expressed in E. coli and 6xHIS purified; also called VH57f5 Biotin; Anti-IL13Rα2 VH57) VHH: QVQLQESGGGLVQPGGSLRLSCAASGSIFNTNGMGWYRQAPGKQRERVAGISSGGNTVYAASVEGRFTISRDNAKNTGYLQMNNLKPEDTAVYYCRVAGRQDDYWGQGTQVTVSS , report its measured kon.
Result: 41700

Ask: Given the entry IL13Ra2_2TIG4_f3 (VHH, biotinylated (site not stated), Expressed in E. coli and 6xHIS purified; also called IL13Ra2_2TIG4_f3-Biotin) VHH: QVQLQESGGGLVQPGGSLRLSCAASGRTYGMGWFRQAPGKEREFVAVGVWSSGNTYYADFARGRFTISRDNAKNTVYLQMDSLKPEDTAVYYCAAPRYSSYTTYHAAYDYWGPGTQVTVSS , report its measured kon.
Result: 107000
